tested.system: T1, human PD-L1-Fc protein (human, UniProt Q9NZQ7 19-239)
T1 construct: Bought from R&D Systems; also called immobilised PD-L1-Fc; not shown: Fc part of the bought fusion protein, not described
T1 sequence (Q9NZQ7 19-239 limits assumed): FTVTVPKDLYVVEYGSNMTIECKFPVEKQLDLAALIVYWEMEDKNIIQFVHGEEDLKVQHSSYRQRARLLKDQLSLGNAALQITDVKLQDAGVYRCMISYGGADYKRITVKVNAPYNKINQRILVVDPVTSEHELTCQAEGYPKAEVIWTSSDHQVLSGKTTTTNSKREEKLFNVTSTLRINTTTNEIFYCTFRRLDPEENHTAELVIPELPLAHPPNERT
assay.method.text: ELISA, Fab on coated human PD-L1-Fc, pH 7.4
observable: EC50

binder	EC50
Fab 8B06 (Fab, V domains shown, Purified Fab prepared from IgG with the Pierce kit; also called 8B06 Fab) VH: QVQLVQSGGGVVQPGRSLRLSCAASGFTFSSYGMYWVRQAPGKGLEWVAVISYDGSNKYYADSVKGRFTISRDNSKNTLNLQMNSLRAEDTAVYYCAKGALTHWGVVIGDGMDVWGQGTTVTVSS VL: NFMLTQPHSVSESPGKTVTISCRETELSRRLHYVRWYQQRPGSSPTTVIYEDDQRPSGVPDRFSGSIDSSSNSASLTISGLKTEDEADYYCQSFDSTNPWVFGGGTKLTVL	> 100 nM
Fab 8G08 (Fab, V domains shown, Purified Fab prepared from IgG with the Pierce kit; also called 8G08 Fab) VH: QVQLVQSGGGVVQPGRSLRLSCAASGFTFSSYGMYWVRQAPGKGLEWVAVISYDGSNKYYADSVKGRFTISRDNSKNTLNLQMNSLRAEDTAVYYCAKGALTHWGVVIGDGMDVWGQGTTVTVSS VL: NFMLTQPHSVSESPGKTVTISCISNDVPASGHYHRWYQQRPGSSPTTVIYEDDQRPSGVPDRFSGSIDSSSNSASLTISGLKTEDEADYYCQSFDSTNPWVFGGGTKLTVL	> 100 nM

Let us examine a further case.
Query: Recorded EC50 of Fab 8A04 (Fab, V domains shown, Purified Fab prepared from IgG with the Pierce kit; also called 8A04 Fab) VH: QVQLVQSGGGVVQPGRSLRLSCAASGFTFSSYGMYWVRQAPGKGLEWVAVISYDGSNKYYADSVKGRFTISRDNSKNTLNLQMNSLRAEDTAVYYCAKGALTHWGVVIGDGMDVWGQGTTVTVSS VL: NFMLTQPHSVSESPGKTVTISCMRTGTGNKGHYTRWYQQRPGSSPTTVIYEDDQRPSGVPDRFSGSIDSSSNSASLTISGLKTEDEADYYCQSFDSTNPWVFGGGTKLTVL , please.
Reply: > 10 nM
